Target: 11-beta-hydroxysteroid dehydrogenase type 2 (Rattus norvegicus) (UniProt P50233)
Sequence (P50233 whole entry): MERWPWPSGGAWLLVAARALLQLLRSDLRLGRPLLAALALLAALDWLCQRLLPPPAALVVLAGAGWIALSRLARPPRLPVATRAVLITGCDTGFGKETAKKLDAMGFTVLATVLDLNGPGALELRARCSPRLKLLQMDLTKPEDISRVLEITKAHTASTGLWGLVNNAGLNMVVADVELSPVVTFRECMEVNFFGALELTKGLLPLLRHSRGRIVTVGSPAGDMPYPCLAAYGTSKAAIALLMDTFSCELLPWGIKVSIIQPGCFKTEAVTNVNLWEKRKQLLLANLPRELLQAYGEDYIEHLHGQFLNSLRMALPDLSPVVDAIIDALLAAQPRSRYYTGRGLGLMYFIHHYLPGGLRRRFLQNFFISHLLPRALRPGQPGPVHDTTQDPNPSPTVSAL
Experiment: Percent inhibition against 11-beta-hydroxysteroid dehydrogenase 2 of wistar rat kidney at 10 uM was determined using [3H]cortisol
measured_property: inhibition (%)

CCOC(=O)[C@H](C)NC(=O)[C@@]1(C)CC[C@]2(C)CC[C@]3(C)C(=CC(=O)C4[C@@]5(C)CC[C@H](O)C(C)(C)C5CC[C@]43C)[C@@H]2C1 (stereo partly drawn)
35
CC1(C)C2CC[C@]3(C)C(C(=O)C=C4[C@@H]5C[C@@](C)(C(=O)NCCO)CC[C@]5(C)CC[C@]43C)[C@@]2(C)CC[C@@H]1O (stereo partly drawn)
92
CC1(C)C2CC[C@]3(C)C(C(=O)C=C4[C@@H]5C[C@@](C)(C(=O)NC6CC6)CC[C@]5(C)CC[C@]43C)[C@@]2(C)CC[C@@H]1O (stereo partly drawn)
103
CC1(C)C2CC[C@]3(C)C(C(=O)C=C4[C@@H]5C[C@@](C)(C(=O)NN6CCOCC6)CC[C@]5(C)CC[C@]43C)[C@@]2(C)CC[C@@H]1O (stereo partly drawn)
20

(P) CC1(C)C2CC[C@]3(C)C(C(=O)C=C4[C@@H]5C[C@@](C)(C(=O)NCCCCCO)CC[C@]5(C)CC[C@]43C)[C@@]2(C)CC[C@@H]1O (stereo partly drawn)
(Q) CC1(C)C2CC[C@]3(C)C(C(=O)C=C4[C@@H]5C[C@@](C)(C(=O)NC6CCOC6=O)CC[C@]5(C)CC[C@]43C)[C@@]2(C)CC[C@@H]1O (stereo partly drawn)
(R) CC1(C)C2CC[C@]3(C)C(C(=O)C=C4[C@@H]5C[C@@](C)(C(=O)NCCN6CCOCC6)CC[C@]5(C)CC[C@]43C)[C@@]2(C)CC[C@@H]1O (stereo partly drawn)
Task item: Order these by inhibition, descending, and give the full ranking. Record the ranking as a list of labels in the requested order.
Reply: P, R, Q
(P: 98%, R: 66%, Q: 25%)

---

Biological target: 11-beta-hydroxysteroid dehydrogenase 1 (Rattus norvegicus)
Assay: Percent inhibition against 11-beta-hydroxysteroid dehydrogenase 1 of wistar rat liver cytosol at 10 uM was determined using [3H]cortisone
measured_property: inhibition (%)

Please review the entries below; each comes with its answer.
CCOC(=O)[C@H](C)NC(=O)[C@@]1(C)CC[C@]2(C)CC[C@]3(C)C(=CC(=O)C4[C@@]5(C)CC[C@H](O)C(C)(C)C5CC[C@]43C)[C@@H]2C1 (stereo partly drawn)
25
CC1(C)C2CC[C@]3(C)C(C(=O)C=C4[C@@H]5C[C@@](C)(C(=O)NCCO)CC[C@]5(C)CC[C@]43C)[C@@]2(C)CC[C@@H]1O (stereo partly drawn)
36
CC1(C)C2CC[C@]3(C)C(C(=O)C=C4[C@@H]5C[C@@](C)(C(=O)NC6CCOC6=O)CC[C@]5(C)CC[C@]43C)[C@@]2(C)CC[C@@H]1O (stereo partly drawn)
71
CC1(C)C2CC[C@]3(C)C(C(=O)C=C4[C@@H]5C[C@@](C)(C(=O)NC6CC6)CC[C@]5(C)CC[C@]43C)[C@@]2(C)CC[C@@H]1O (stereo partly drawn)
90
CC1(C)C2CC[C@]3(C)C(C(=O)C=C4[C@@H]5C[C@@](C)(C(=O)NCCCCCO)CC[C@]5(C)CC[C@]43C)[C@@]2(C)CC[C@@H]1O (stereo partly drawn)
88

(P) CC1(C)C2CC[C@]3(C)C(C(=O)C=C4[C@@H]5C[C@@](C)(C(=O)NCCN6CCOCC6)CC[C@]5(C)CC[C@]43C)[C@@]2(C)CC[C@@H]1O (stereo partly drawn)
(Q) CC1(C)C2CC[C@]3(C)C(C(=O)C=C4[C@@H]5C[C@@](C)(C(=O)NN6CCOCC6)CC[C@]5(C)CC[C@]43C)[C@@]2(C)CC[C@@H]1O (stereo partly drawn)
(R) CC1(C)[C@@H](O)CC[C@]2(C)[C@H]3C(=O)C=C4[C@@H]5C[C@@](C)(C(=O)O)CC[C@]5(C)CC[C@@]4(C)[C@]3(C)CC[C@@H]12
Task item: Rank entries according to their inhibition, from the largest number down. Could you list the labels in the order requested?
Reply: R, Q, P
